test system: NCI-H1915; test: relative viability (nuclei count vs DMSO), 5 days (fraction); higher = more cells survive; conditions: first compound 6.325 µM
measurement-kind: relative viability

// worked examples, relative viability included
Just so you know, measured relative viability for COCC1(CO)C(=O)C2CCN1CC2 (stereo unspecified) [PRIMA-1MET] + O=C(CCCCCCC(=O)Nc1ccccc1)NO [Vorinostat] (partner 1 µM) came out at 0.625

Just so you know, measured relative viability for COCC1(CO)C(=O)C2CCN1CC2 (stereo unspecified) [PRIMA-1MET] + Cc1cc(Nc2cc(N3CCN(C)CC3)nc(Sc3ccc(NC(=O)C4CC4)cc3)n2)n[nH]1 [Tozasertib] (partner 0.1 µM) came out at 0.389

Record relative viability per entry; entries follow.
1. COCC1(CO)C(=O)C2CCN1CC2 (stereo unspecified) [PRIMA-1MET] + COc1cccc2cc(-c3nc([C@H]4CC[C@H](C(=O)O)CC4)n4ncnc(N)c34)[nH]c12 [OSI-027] (partner 0.5 µM)
2. COCC1(CO)C(=O)C2CCN1CC2 (stereo unspecified) [PRIMA-1MET] + C[C@]1(O)C[C@@H](c2nc(-c3ccc4ccc(-c5ccccc5)nc4c3)c3c(N)nccn32)C1 [Linsitinib] (partner 1 µM)
3. COCC1(CO)C(=O)C2CCN1CC2 (stereo unspecified) [PRIMA-1MET] + CS(=O)(=O)N1CCN(Cc2cc3nc(-c4cccc5[nH]ncc45)nc(N4CCOCC4)c3s2)CC1 [Pictilisib] (partner 1 µM)
4. COCC1(CO)C(=O)C2CCN1CC2 (stereo unspecified) [PRIMA-1MET] + Cc1nc(NC(=O)N2CCC[C@H]2C(N)=O)sc1-c1ccnc(C(C)(C)C(F)(F)F)c1 [Alpelisib] (partner 2 µM)
5. COCC1(CO)C(=O)C2CCN1CC2 (stereo unspecified) [PRIMA-1MET] + Cc1nc(Nc2ncc(C(=O)Nc3c(C)cccc3Cl)s2)cc(N2CCN(CCO)CC2)n1 [Dasatinib] (partner 0.075 µM)
6. COCC1(CO)C(=O)C2CCN1CC2 (stereo unspecified) [PRIMA-1MET] + CC(=O)c1c(C)c2cnc(Nc3ccc(N4CCNCC4)cn3)nc2n(C2CCCC2)c1=O [Palbociclib] (partner 0.5 µM)

Found:
1. 0.443
2. 1.11
3. 0.705
4. 1.01
5. 0.269
6. 0.518

Record relative viability per entry; entries follow.
1. COCC1(CO)C(=O)C2CCN1CC2 (stereo unspecified) [PRIMA-1MET] + CC(C)C[C@H](NC(=O)[C@H](Cc1ccccc1)NC(=O)c1cnccn1)B(O)O [Bortezomib] (partner 0.002 µM)
2. COCC1(CO)C(=O)C2CCN1CC2 (stereo unspecified) [PRIMA-1MET] + NC(=O)Nc1cc(-c2cccc(F)c2)sc1C(=O)N[C@H]1CCCNC1 [AZD7762] (partner 0.2 µM)
3. COCC1(CO)C(=O)C2CCN1CC2 (stereo unspecified) [PRIMA-1MET] + C[C@@H](Oc1cc(-c2cnn(C3CCNCC3)c2)cnc1N)c1c(Cl)ccc(F)c1Cl [Crizotinib] (partner 1 µM)

Found:
1. 0.764
2. 0.82
3. 0.912

====

system: HOP-62; test: relative viability (nuclei count vs DMSO), 5 days (fraction); higher = more cells survive; conditions: first compound 0.8 µM
measurement-kind: relative viability
Answers are plain numbers.

// worked examples, relative viability included
Just so you know, measured relative viability for COc1nc(C)cnc1NS(=O)(=O)c1cccnc1-c1ccc(-c2nnco2)cc1 [Zibotentan] + C[C@]1(O)C[C@@H](c2nc(-c3ccc4ccc(-c5ccccc5)nc4c3)c3c(N)nccn32)C1 [Linsitinib] (partner 1 µM) came out at 0.992

Just so you know, measured relative viability for O=c1cc(-c2cccc3c2Sc2ccccc2S3)oc(N2CCOCC2)c1 + NC(=O)Nc1cc(-c2cccc(F)c2)sc1C(=O)N[C@H]1CCCNC1 [AZD7762] (partner 0.2 µM) came out at 0.869

Just so you know, measured relative viability for COc1nc(C)cnc1NS(=O)(=O)c1cccnc1-c1ccc(-c2nnco2)cc1 [Zibotentan] + NC(=O)Nc1cc(-c2cccc(F)c2)sc1C(=O)N[C@H]1CCCNC1 [AZD7762] (partner 0.2 µM) came out at 0.479

Record relative viability per entry; entries follow.
1. COc1nc(C)cnc1NS(=O)(=O)c1cccnc1-c1ccc(-c2nnco2)cc1 [Zibotentan] + O=C(CCCCCCC(=O)Nc1ccccc1)NO [Vorinostat] (partner 1 µM)
2. COc1nc(C)cnc1NS(=O)(=O)c1cccnc1-c1ccc(-c2nnco2)cc1 [Zibotentan] + CC(=O)c1c(C)c2cnc(Nc3ccc(N4CCNCC4)cn3)nc2n(C2CCCC2)c1=O [Palbociclib] (partner 0.5 µM)

Found:
1: 0.735; 2: 0.518

====

system: NCI-H2228; experiment: relative viability (nuclei count vs DMSO), 5 days (fraction); higher = more cells survive; settings: first compound 0.8 µM
measurement-kind: relative viability
Numbers only.

Just so you know, measured relative viability for O=c1cc(-c2cccc3c2Sc2ccccc2S3)oc(N2CCOCC2)c1 + Cc1cc(Nc2cc(N3CCN(C)CC3)nc(Sc3ccc(NC(=O)C4CC4)cc3)n2)n[nH]1 [Tozasertib] (partner 0.1 µM) came out at 0.248

Just so you know, measured relative viability for COc1nc(C)cnc1NS(=O)(=O)c1cccnc1-c1ccc(-c2nnco2)cc1 [Zibotentan] + CS(=O)(=O)CCNCc1ccc(-c2ccc3ncnc(Nc4ccc(OCc5cccc(F)c5)c(Cl)c4)c3c2)o1 [Lapatinib] (partner 2 µM) came out at 0.989

Let us move to another entry and its relative viability.
Just so you know, measured relative viability for O=c1cc(-c2cccc3c2Sc2ccccc2S3)oc(N2CCOCC2)c1 + CC(=O)Nc1cccc(-n2c(=O)n(C3CC3)c(=O)c3c(Nc4ccc(I)cc4F)n(C)c(=O)c(C)c32)c1 [Trametinib] (partner 0.02 µM) came out at 0.582

====

system: NCI-H1395; experiment: relative viability (nuclei count vs DMSO), 5 days (fraction); higher = more cells survive; conditions: first compound 0.8 µM
What relative viability was measured for each of the following?
One number for each entry.

Just so you know, measured relative viability for COc1nc(C)cnc1NS(=O)(=O)c1cccnc1-c1ccc(-c2nnco2)cc1 [Zibotentan] + O=C(c1cc(Cc2n[nH]c(=O)c3ccccc23)ccc1F)N1CCN(C(=O)C2CC2)CC1 [Olaparib] (partner 8 µM) came out at 0.436

Let us move to another entry and its relative viability.
Just so you know, measured relative viability for COc1nc(C)cnc1NS(=O)(=O)c1cccnc1-c1ccc(-c2nnco2)cc1 [Zibotentan] + Cc1cc(Nc2cc(N3CCN(C)CC3)nc(Sc3ccc(NC(=O)C4CC4)cc3)n2)n[nH]1 [Tozasertib] (partner 0.1 µM) came out at 0.733

====

test system: NCI-H1792; assay: relative viability (nuclei count vs DMSO), 5 days (fraction); higher = more cells survive; conditions: first compound 0.03162 µM
measurement-kind: relative viability

// worked examples, relative viability included
Just so you know, measured relative viability for CCN(CC)CCCCNc1ncc2cc(-c3cc(OC)cc(OC)c3)c(NC(=O)NC(C)(C)C)nc2n1 + CS(=O)(=O)CCNCc1ccc(-c2ccc3ncnc(Nc4ccc(OCc5cccc(F)c5)c(Cl)c4)c3c2)o1 [Lapatinib] (partner 2 µM) came out at 0.886

Just so you know, measured relative viability for CCN(CC)CCCCNc1ncc2cc(-c3cc(OC)cc(OC)c3)c(NC(=O)NC(C)(C)C)nc2n1 + O=C(c1cc(Cc2n[nH]c(=O)c3ccccc23)ccc1F)N1CCN(C(=O)C2CC2)CC1 [Olaparib] (partner 8 µM) came out at 0.475

Just so you know, measured relative viability for CCN(CC)CCCCNc1ncc2cc(-c3cc(OC)cc(OC)c3)c(NC(=O)NC(C)(C)C)nc2n1 + CS(=O)(=O)N1CCN(Cc2cc3nc(-c4cccc5[nH]ncc45)nc(N4CCOCC4)c3s2)CC1 [Pictilisib] (partner 1 µM) came out at 0.282

Just so you know, measured relative viability for O=c1cc(N2CCOCC2)oc2c(-c3cccc4c3sc3ccccc34)cccc12 + C[C@]1(O)C[C@@H](c2nc(-c3ccc4ccc(-c5ccccc5)nc4c3)c3c(N)nccn32)C1 [Linsitinib] (partner 1 µM) came out at 0.513

Record relative viability per entry; entries follow.
1. O=c1cc(N2CCOCC2)oc2c(-c3cccc4c3sc3ccccc34)cccc12 + CC(=O)c1c(C)c2cnc(Nc3ccc(N4CCNCC4)cn3)nc2n(C2CCCC2)c1=O [Palbociclib] (partner 0.5 µM)
2. O=c1cc(N2CCOCC2)oc2c(-c3cccc4c3sc3ccccc34)cccc12 + Nc1ncn([C@H]2C[C@H](O)[C@@H](CO)O2)c(=O)n1 [Decitabine] (partner 2 µM)

Found:
1. 0.577
2. 0.531

Just so you know, measured relative viability for O=c1cc(N2CCOCC2)oc2c(-c3cccc4c3sc3ccccc34)cccc12 + Cc1nc(NC(=O)N2CCC[C@H]2C(N)=O)sc1-c1ccnc(C(C)(C)C(F)(F)F)c1 [Alpelisib] (partner 2 µM) came out at 0.628
